- Assay Procedure: Cmax in Sprague-Dawley rat at 10 mg/kg, po
- Assay type: ADME, organism-based
- Design: dose 10 mg/kg, route oral
- Setup Conditions: in vivo
Attribute Measured: Cmax

Q: Determine from records and report Cmax for `CO/N=C/c1c(N)ncnc1Nc1ccc(OCc2ccccc2)c(Cl)c1`
Ans: 5.7 µM

----------
- Assay Procedure: Half life in Sprague-Dawley rat at 10 mg/kg, po
- Assay type: ADME, organism-based
- Set-up: dose 10 mg/kg, route oral
- Setup Conditions: in vivo
Attribute Measured: half-life (h)
One number for each entry, in h.

Q: Determine from records and report half-life for `CO/N=C/c1c(N)ncnc1Nc1ccc(OCc2ccccc2)c(Cl)c1`
Ans: 8.4

----------
- Assay Procedure: Tmax in Sprague-Dawley rat at 10 mg/kg, po
- Assay type: ADME, organism-based
- Set-up: dose 10 mg/kg, route oral
- Setup Conditions: in vivo
Attribute Measured: Tmax (min)
One number for each entry, in min.

Q: Determine from records and report Tmax for `CO/N=C/c1c(N)ncnc1Nc1ccc(OCc2ccccc2)c(Cl)c1`
Ans: 37.8

----------
- Assay Procedure: AUC in Sprague-Dawley rat at 10 mg/kg, po
- Assay type: ADME, organism-based
- Design: dose 10 mg/kg, route oral
- Setup Conditions: plasma
Attribute Measured: AUC (µM·h)
Answers are plain numbers, in µM·h.

Q: Determine from records and report AUC for `CO/N=C/c1c(N)ncnc1Nc1ccc(OCc2ccccc2)c(Cl)c1`
Ans: 19.3

----------
- Assay Procedure: Volume of distribution at steady state in Sprague-Dawley rat at 2 mg/kg, iv and 10 mg/kg, po
- Format: ADME, organism-based
- Setup Conditions: in vivo, read-out: Vdss
Attribute Measured: Vd (L/kg)
Numbers only, in L/kg.

Q: Determine from records and report Vd for `CO/N=C/c1c(N)ncnc1Nc1ccc(OCc2ccccc2)c(Cl)c1`
Ans: 0.17

----------
- Assay Procedure: Clearance in Sprague-Dawley rat at 2 mg/kg, iv and 10 mg/kg, po
- Format: ADME, organism-based
- Setup Conditions: in vivo
Attribute Measured: clearance (mL/min/kg)
Answers are plain numbers, in mL/min/kg.

Q: Determine from records and report clearance for `CO/N=C/c1c(N)ncnc1Nc1ccc(OCc2ccccc2)c(Cl)c1`
Ans: 3.56
